Cited source for all entries: ChEMBL document CHEMBL1201862

Listed next: entries and their corresponding GI50.
tested on: SNB-75; test: NCI tumour cell line growth inhibition, 48 h
Active and inactive are the calls of the source. No stated cut-off is given here; in the data, active = GI50 up to about 1.1 µM and inactive = higher.
valueKind: GI50

| molecule | targetDesc | valueKind | recordedResult |
| --- | --- | --- | --- |
| Cc1cc(C2CCCCC2)n(O)c(=O)c1 | SNB-75 | GI50 | 5.46 µM (inactive) |
| C=CC[C@@H]1C(=O)[C@@]2(O[Si](C(C)C)(C(C)C)C(C)C)CC[C@@H]1C[C@H]2NC(=O)OCC(Cl)(Cl)Cl | SNB-75 | GI50 | > 100 µM (inactive) |
| Cc1cc(N(CCC#N)CCC#N)ccc1/N=N/c1ccc([N+](=O)[O-])cc1 | SNB-75 | GI50 | > 10 µM (inactive) |
| C#CCC[C@@H]1O[C@@]1(C)CC/C=C(\C)CC/C=C/C=O | SNB-75 | GI50 | 42.6 µM (inactive) |
| COc1cc(/C=C2/SC(c3ccccc3)N(c3cc(Cl)ccc3Cl)C2=O)cc(OC)c1OC (stereo not given) | SNB-75 | GI50 | 45.1 µM (inactive) |
| N=C(NCc1ccccc1)N/N=C\c1ccnc2ccccc12 | SNB-75 | GI50 | 8.04 µM (inactive) |
| Cc1nc2c(n1Cc1ccc(F)cc1)C(=O)c1ccccc1C2=O | SNB-75 | GI50 | 36.6 µM (inactive) |
| CC1CC[C@]2(C(=O)O)CCC3(C)C(=CC(=O)C4[C@@]5(C)CCC(=O)C(C)(C)C5CC[C@]43C)[C@@H]2[C@H]1C (stereo not given in full) | SNB-75 | GI50 | 35.5 µM (inactive) |
| O=C1N[C@@H]2CCCC[C@@H]2C12CCCCC2 | SNB-75 | GI50 | > 100 µM (inactive) |
| COC1=N[C@H](C(C)C)C(OC)=N[C@H]1Cc1ccc(C[C@@H]2N=C(OC)[C@@H](C(C)C)N=C2OC)s1 | SNB-75 | GI50 | > 100 µM (inactive) |

----------
tested on: SK-OV-3; assay: NCI tumour cell line growth inhibition, 48 h
The source made the active and inactive calls. Rule as the data show it: active = GI50 up to about 1.1 µM and inactive = higher.
Listed next: entries and their corresponding GI50.
valueKind: GI50

| compound | recordedResult |
| --- | --- |
| O=[N+]([O-])c1ccc2nc3ccscc-3c2c1 | 30.7 µM (inactive) |
| CN(C)c1ccc(/C=C(\NC(=O)c2ccccc2)c2nc3ccc4c(c3[nH]2)C(=O)c2ccccc2C4=O)cc1 | 39 µM (inactive) |
| Cc1ccc(NC(=O)C(=O)C(C(=O)c2ccc3ccccc3c2)C2OC(=O)c3ccccc32)cc1C (stereo not given) | 26.9 µM (inactive) |
| CC(=O)CCC[C@@H](C)[C@@H]1O[C@H]([C@@]2(C)CCC(=O)O2)C[C@H]2C(CSc3ccccc3)C(=O)O[C@@H]12 (stereo not given in full) | 44.7 µM (inactive) |
| CCOC(=O)C(NC(=O)CC(C)C)(Nc1ccc(S(=O)(=O)Nc2nc(C)cc(C)n2)cc1)C(F)(F)F (stereo not given) | > 100 µM (inactive) |

----------
tested on: SK-OV-3; assay: NCI tumour cell line growth inhibition, 48 h
The source made the active and inactive calls. No stated cut-off is given here; in the data, active = GI50 up to about 1.1 µM and inactive = higher.
valueKind: GI50

| compound | recordedResult |
| --- | --- |
| COc1cc(-c2ccc(/N=N/c3ccc4c(S(=O)(=O)O)cc(S(=O)(=O)O)c(N)c4c3O)c(OC)c2)ccc1/N=N/c1ccc2c(S(=O)(=O)O)cc(S(=O)(=O)O)c(N)c2c1O | > 100 µM (inactive) |
| O=C1CCC[C@H]2O[C@@H](COCc3ccccc3)C[C@@H]12 | > 100 µM (inactive) |
| Cn1c(-c2ccccc2)c/c(=N\NS(C)(=O)=O)c2cc(S(=O)(=O)O)ccc21 | > 100 µM (inactive) |
| O=[N+]([O-])c1ccc(O)c(/C=N/c2nc(-c3ccccc3)cs2)c1 | 32.5 µM (inactive) |
| C#CCC[C@@H]1O[C@@]1(C)CC/C=C(\C)CC/C=C/C=O | > 100 µM (inactive) |
| COC1=C(OC)C(=O)C(Cc2c(Cl)nc3sc(C)cn23)=C(C)C1=O | 17.5 µM (inactive) |
| COc1ccc(C(=O)c2c(-c3ccccc3NC(=O)C(F)(F)F)[nH]c3ccccc23)cc1 | 14.6 µM (inactive) |
| Nc1nccc(-c2c[nH]c3cc(Br)ccc23)n1 | 29.1 µM (inactive) |
| O=C(CO)CC(=O)C(=O)Nc1nc([N+](=O)[O-])cs1 | > 100 µM (inactive) |
| N#CC(C(=O)c1ccccc1F)c1nc2cc(C(F)(F)F)ccc2s1 (centres undefined) | 27 µM (inactive) |
| Cc1ccc(S(=O)(=O)Oc2ccc(OS(=O)(=O)c3ccc(C)cc3)c3c2C(=O)c2ccccc2C3=O)cc1 | > 100 µM (inactive) |
| O=Cc1ccc(-c2cc(C=O)c(-c3cccs3)[nH]2)s1 | 48.4 µM (inactive) |
| c1ccc2c(c1)ccc1nc(-c3ccc4c(c3)OCO4)c3c(c12)CCC3 | > 100 µM (inactive) |
| CCOc1ccc(/N=N/c2ccc(-c3ccc(/N=N/c4c(O)ccc5cc(S(=O)(=O)O)cc(S(=O)(=O)O)c45)cc3)cc2)cc1 | > 100 µM (inactive) |
| CCOC(=O)C(=O)Nc1c(C)cccc1CC | > 100 µM (inactive) |
| [O-][s+]1c2c(Cc3ccccc3)c(Cc3ccccc3)c1CCc1cccc(c1)CC2 | 10.7 µM (inactive) |
| COCCOC(=O)C1=C(O)c2ccccc2S(=O)(=O)N1C | > 100 µM (inactive) |
| O=C(Cc1ccc(Cl)cc1)Nc1ccc2oc(-c3ccccc3)nc2c1 | 77.8 µM (inactive) |
| CCCCCCCOc1ccc(/C=C\c2cc[n+](CCCCCCCC[n+]3ccc(/C=C\c4ccc(OCCCCCCC)cc4)cc3)cc2)cc1 | 28.1 µM (inactive) |
